# System: Plasmodium falciparum chloroquine-sensitive (D6) strain
# PROTOCOL_DETAILS: Antiplasmodial assay
# Type: cell-based
# RECORDED_CONDITIONS: Plasmodium falciparum, D6, read-out: IC50 D6
Exercise: state measured IC50 for each of the compounds provided.
Give just the numeric value; µM need not be written.

Prompt: Which IC50 is reported for this compound? CC(=O)O[C@@H]1C[C@H]2C(C)(C)C(=O)C=C[C@]2(C)[C@H]2CC[C@]3(C)C(=CC[C@H]3c3ccoc3)[C@@]21C
Response: 23.4

Prompt: Quick check: IC50 of C[C@H](C[C@@H](O)[C@@H]1OC1(C)C)[C@@H]1CC[C@]2(C)C3=CC[C@H]4C(C)(C)C(=O)CC[C@]4(C)[C@H]3CC[C@@]12C ?
Response: 48.2

Prompt: Quick check: IC50 of CC(=O)O[C@H]1C[C@@H]2[C@@]3(C)CCC(=O)C(C)(C)[C@@H]3C[C@@H](O)[C@@]2(C)C2=CC[C@@H](c3ccoc3)[C@@]21C ?
Response: 36.6

###

# Test system: Plasmodium falciparum chloroquine-resistant (W2) strain
# PROTOCOL_DETAILS: Antiplasmodial assay
# Assay type: cell-based
# RECORDED_CONDITIONS: W2, read-out: IC50 W2
ENDPOINT_LABEL: pIC50
Recall that pIC50 is obtained by taking minus log10 of the concentration measured in molar.

Prompt: Looking for the measured pIC50 of C[C@H](C[C@@H](O)[C@@H]1OC1(C)C)[C@@H]1CC[C@]2(C)C3=CC[C@H]4C(C)(C)C(=O)CC[C@]4(C)[C@H]3CC[C@@]12C [Niloticin (8), niloticin] , can you help?
Response: 4.11

Prompt: # pIC50 lookup, item CC(=O)O[C@@H]1C[C@H]2C(C)(C)C(=O)C=C[C@]2(C)[C@H]2CC[C@]3(C)C(=CC[C@H]3c3ccoc3)[C@@]21C [Azadirone (1), azadirone]
Response: 4.53

Prompt: Name the reported pIC50 value associated with the molecule CC(=O)O[C@H]1C[C@@H]2[C@@]3(C)CCC(=O)C(C)(C)[C@@H]3C[C@@H](O)[C@@]2(C)C2=CC[C@@H](c3ccoc3)[C@@]21C [Mzikonone (3), mzikonone]
Response: 4.39

###

# Test system: mouse breast cancer (4T1) cells
# PROTOCOL_DETAILS: MTT cytotoxicity assay, 4T1 cells
# Type: cell-based
# RECORDED_CONDITIONS: Mus musculus, 4T1, 48 h, read-out: IC50 4T1, 4T1 cells, MTT, 48 h
ENDPOINT_LABEL: IC50

Prompt: # IC50 lookup, item CC(=O)O[C@H]1C[C@@H]2[C@@]3(C)CCC(=O)C(C)(C)[C@@H]3C[C@@H](O)[C@@]2(C)C2=CC[C@@H](c3ccoc3)[C@@]21C
Response: 38.8 µM

Prompt: // returns reported IC50 for input C[C@H](C[C@@H](O)[C@@H]1OC1(C)C)[C@@H]1CC[C@]2(C)C3=CC[C@H]4C(C)(C)C(=O)CC[C@]4(C)[C@H]3CC[C@@]12C
Response: < 20 µM

Prompt: Bench note: what IC50 did CC(=O)O[C@@H]1C[C@H]2C(C)(C)C(=O)C=C[C@]2(C)[C@H]2CC[C@]3(C)C(=CC[C@H]3c3ccoc3)[C@@]21C show?
Response: < 20 µM

###

# Tested on: Plasmodium falciparum chloroquine-resistant (W2) strain
# PROTOCOL_DETAILS: Antiplasmodial assay
# Assay type: cell-based
# RECORDED_CONDITIONS: W2, read-out: IC50 W2 (chloroquine)
ENDPOINT_LABEL: IC50 (nM)
Please give a number only; it is taken to be in nM.

Prompt: Quick check: IC50 of CCN(CC)CCCC(C)Nc1ccnc2cc(Cl)ccc12 (stereo not shown) [Chloroquine, reference compound] ?
Response: 108

###

# Test system: human larynx carcinoma (HEp2) cells
# PROTOCOL_DETAILS: MTT cytotoxicity assay, HEp2 cells
# Type: cell-based
# RECORDED_CONDITIONS: read-out: IC50 HEp2; HEp2 cells, MTT, 48 h; listed as niloticin (8)
ENDPOINT_LABEL: IC50

Prompt: Given the entry C[C@H](C[C@@H](O)[C@@H]1OC1(C)C)[C@@H]1CC[C@]2(C)C3=CC[C@H]4C(C)(C)C(=O)CC[C@]4(C)[C@H]3CC[C@@]12C [Niloticin (8), niloticin] , report its measured IC50.
Response: < 20 µM
